B1: KLHL13 (parent)
chain: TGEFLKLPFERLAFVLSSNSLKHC

Variants of: B1
Assay: protein stability index of a GFP-peptide fusion (GPS, HEK-293T) (PSI 1-6); higher = more stable;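 also: lentivirally expressed fusions sorted by FACS into six bins by GFP to DsRed ratio, PSI derived from sequencing read proportions per bin multiplied by bin number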
Conditions: c terminus: a fixed tail appended
Our labelling divides records by protein stability index into ranges: class A: < 2; class B: ≥ 2 and < 3; class C: ≥ 3

The examples below pair each entry with its known result.
R11F : class C
E3R : class B
L21V : class A
K22G : class B
L16M : class B

[Q] Kindly identify the class of N19P .
[A] class B

[Q] Lab note: sort L7Q into the matching protein stability index band.
[A] class A

[Q] Categorize the following entry: L16G
[A] class B

[Q] Could you place K22A in its proper category? Many thanks.
[A] class B

[Q] Form field 'band' for S17I
[A] class A
